# Tested on: CD34^+CD38^− cells
# METHOD: Expansion of CD34+CD38- cells using human cord blood-derived CD34+ cells (Assay Example 1)
# Format: cell-based
# PARTICULARS: 3 μg/mL compound vs TPO 10 ng/mL; CD34^+CD38^− cells

{"columns": ["COMPOUND", "Comparison with TPO"],
 "data": [
  ["COCCOCCNC(=O)c1ccc(CNC(=O)c2ccc(C(=O)NN=C(C)c3csc(-c4ccc(Br)cc4)c3O)s2)cc1 [compound 33]", "∘"],
  ["CC(=NNC(=O)c1ccc(C(=O)NCc2ccc(C(=O)NCCOCCO)cc2)s1)c1csc(-c2ccc(Cl)cc2)c1O [compound 63]", "∘"],
  ["CC(=NNC(=O)c1ccc(C(=O)NCc2ccc(C(=O)NCCOCCO)cc2)s1)c1csc(-c2ccc(Br)cc2)c1O [compound 61]", "∘"],
  ["CC(=NNC(=O)c1ccc(C(=O)NCc2ccc(C(=O)NCCN(CCO)CCO)cc2)s1)c1csc(-c2ccc(Cl)c(Cl)c2)c1O [compound 22]", "∘"],
  ["CC(=NNC(=O)c1ccc(C(=O)NCc2ccc(C(=O)NCCO)cc2)s1)c1csc(-c2ccc(Br)cc2)c1O [compound 15]", "∘"],
  ["CC(=NNC(=O)c1ccc(C(=O)NCc2ccc(C(=O)NCCN3CCOCC3)cc2)s1)c1csc(-c2ccc(Br)cc2)c1O [compound 21]", "∘"],
  ["CC(=NNC(=O)c1ccc(C(=O)NCc2ccc(C(=O)NCCN3CCNCC3)cc2)s1)c1csc(-c2ccc(Br)cc2)c1O [compound 30]", "∘"]
]}
